Values from the supplement of paper PMC4466140

System Tested: SpAbp1-D1
Procedure Summary: SPOT peptide array binding signal intensity (averaged, normalized) (arbitrary units (background-subtracted, floor 0; scale differs between SH3 domains)); higher = stronger binding of the SH3 domain to the peptide
Entries annotated with measured SPOT peptide array binding signal intensity

Consider the worked cases shown below.
Exercise: If you can, please state the reported SPOT peptide array binding signal intensity value of TEVPIPRRPPPPQAA .
Key: ≤ 0

Exercise: If you can, please state the reported SPOT peptide array binding signal intensity value of QPQRTAPKPPISAPR .
Key: 2.5

Exercise: If you can, please state the reported SPOT peptide array binding signal intensity value of APPLPPTAPPPPSLP .
Key: ≤ 0

Exercise: If you can, please state the reported SPOT peptide array binding signal intensity value of ISPPASPPPEFDFSK .
Key: ≤ 0

Now for a further binder.
Exercise: If you can, please state the reported SPOT peptide array binding signal intensity value of VKPRQLFPIPLNKVD .
Key: 29
